# test-target: UniProt P20272
# Sequence (P20272 whole entry): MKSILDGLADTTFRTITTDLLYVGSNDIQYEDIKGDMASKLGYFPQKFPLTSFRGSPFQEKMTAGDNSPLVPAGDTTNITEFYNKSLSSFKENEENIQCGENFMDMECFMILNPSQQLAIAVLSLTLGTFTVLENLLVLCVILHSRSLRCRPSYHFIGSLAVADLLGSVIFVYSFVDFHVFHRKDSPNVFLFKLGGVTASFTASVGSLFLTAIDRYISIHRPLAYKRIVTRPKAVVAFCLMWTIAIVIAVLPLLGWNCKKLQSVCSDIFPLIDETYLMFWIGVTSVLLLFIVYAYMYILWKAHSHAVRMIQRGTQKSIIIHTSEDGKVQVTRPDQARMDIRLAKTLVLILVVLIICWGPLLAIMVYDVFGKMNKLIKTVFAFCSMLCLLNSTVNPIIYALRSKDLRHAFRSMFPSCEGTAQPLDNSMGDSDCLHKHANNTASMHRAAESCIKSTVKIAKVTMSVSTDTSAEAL
# assay-remarks: Agonist activity at rat […] CB1 receptor assessed as decrease in forskolin-stimulated cAMP level stimulated for 30 mins followed by Eu-cAMP tracer addition and measured after 60 mins
The compounds listed here are annotated with their EC50.
property-measured: EC50 (pM)

>>> data_value("CC1(C)Oc2cc(C34CC5CC(CC(CN=[N+]=[N-])(C5)O3)C4)cc(O)c2[C@@H]2C[C@H](CO)CC[C@H]21")
900
>>> data_value("CC1(C)Oc2cc(C34CC5CC(CC(CN=C=S)(C5)O3)C4)cc(O)c2[C@@H]2C[C@H](CO)CC[C@H]21")
900
>>> data_value("CC1(C)Oc2cc(C34CC5CC(CC(CN=C=S)(C5)O3)C4)cc(O)c2[C@@H]2C[C@H](O)CC[C@H]21")
800
>>> data_value("CC1(C)Oc2cc(C34CC5CC(CC(CN=[N+]=[N-])(C5)O3)C4)cc(O)c2[C@@H]2C[C@H](O)CC[C@H]21")
3100
